test: Cytotoxicity against human SH-SY5Y cells assessed as cell viability at 10 uM after 48 hrs by MTT assay; assay type: cell-based
READOUT KIND: cell viability (%)
Provide the reading as a plain figure in %.

Exercise: I have this molecule here, `CN(C)CCn1cc(NC(=O)c2cccc(-n3cc(NC(=O)Nc4ccccc4Cl)cn3)c2)cn1` , and I need its recorded cell viability.
Solution: 105

Exercise: Consider next the molecule `Cc1cc(NC(=O)c2cccc(-n3cc(NC(=O)Nc4ccccc4Cl)cn3)c2)ccn1` in the same way.
Solution: 7

Exercise: Could you do the same for `O=C(Nc1cnn(-c2cccc(C(=O)NCC3CCNCC3)c2)c1)Nc1ccccc1Cl` , please?
Solution: 92
